Biological target: Human adrenergic α2A receptor (Homo sapiens)
Sequence (P08913 whole entry): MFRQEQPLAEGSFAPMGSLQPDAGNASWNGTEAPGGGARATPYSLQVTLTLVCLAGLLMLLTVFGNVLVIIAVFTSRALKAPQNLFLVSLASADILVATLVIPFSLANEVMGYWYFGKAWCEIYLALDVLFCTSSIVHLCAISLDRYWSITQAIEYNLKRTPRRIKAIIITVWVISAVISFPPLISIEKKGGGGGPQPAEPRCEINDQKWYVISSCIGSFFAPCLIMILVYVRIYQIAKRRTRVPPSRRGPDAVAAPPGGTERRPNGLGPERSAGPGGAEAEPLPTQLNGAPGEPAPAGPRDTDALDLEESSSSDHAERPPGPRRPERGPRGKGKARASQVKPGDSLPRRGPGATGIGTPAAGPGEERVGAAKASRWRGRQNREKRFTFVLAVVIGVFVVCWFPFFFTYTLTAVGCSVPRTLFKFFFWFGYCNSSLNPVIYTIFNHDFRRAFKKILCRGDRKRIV
Experiment: β-Arrestin GPCR functional assay, adrenergic α2A (Protocol B)
Conditions: β-arrestin, antagonist vs nor-epinephrine EC80
experimental readout: pIC50
Please report pIC50 as the negative decimal logarithm of the molar concentration, giving only the number.

Input: Provide pIC50 value for the following molecule: Cc1cc(F)cc2c3c(n(CC(C)(O)c4cccnc4)c12)CCN1CCCC31 (single isomer, unassigned) [75a]
Output: 5.68

Input: Assign pIC50 to the following record: Cc1ccc2c(c1)c1c(n2CC(OCC2CCC2)c2ccncc2)CCN(C)C1 (single isomer, unassigned) [59a]
Output: 5.80

Input: Report measured pIC50; entry is Cc1ccc2c(c1)c1c(n2CC(OC(=O)N2CCCC2)c2ccncc2)CCN(C)C1 (single isomer, unassigned)
Output: 5.22

Input: Respond only with pIC50 recorded for Cc1ccc2c(c1)c1c(n2CC(C)(O)c2ccc(F)nc2)CCN2CCCC12 (single isomer, unassigned)
Output: 5.75

====

Target: Human adrenergic α2A receptor (Homo sapiens)
Assay: Radioligand binding, adrenergic α2A (Protocol Group B)
Set-up: purchased Milipore (Millipore)
Details: 0.3 μM compound; Protocol Group B; 0.3 µM
Kindly state Percentage inhibition of ligand binding, Adrenergic α2A (0.3 μM) for each of the entries shown.
Write the answer as a number in %, unit excluded.

Input: Tell me Percentage inhibition of ligand binding, Adrenergic α2A (0.3 μM) reported for Cc1cc(C)c2c(c1)c1c(n2CC(C)(O)c2cccnc2)CCN2CCCC12 (single isomer, unassigned) [44c]
Output: 4

Input: Provide only the value of recorded Percentage inhibition of ligand binding, Adrenergic α2A (0.3 μM) for Cc1cc(F)c2c(c1)c1c(n2CC(O)c2ccncc2)CCN2CCCC12 (single isomer, unassigned) [137b]
Output: 102

Input: Give a short answer stating reported Percentage inhibition of ligand binding, Adrenergic α2A (0.3 μM) for Cc1ccc2c(c1)c1c(n2CC(C)(O)c2ccncc2)CC2CCCN2C1 (single isomer, unassigned) [37b] .
Output: 17

Input: Given CC(O)(Cn1c2c(c3cc(F)ccc31)C1CCCN1CC2)c1ccncc1 (single isomer, unassigned) [31b] , respond with its Percentage inhibition of ligand binding, Adrenergic α2A (0.3 μM).
Output: 38

Input: Report Percentage inhibition of ligand binding, Adrenergic α2A (0.3 μM), nothing else, for this molecule: Cc1ccc2c(c1)c1c(n2CC(C)(O)c2cccnc2)CC2CCCN2C1 (stereo not shown) [41b]
Output: −5

Input: Read the entry Cc1ccc2c(c1)c1c(n2CC(C)(O)c2cccnc2)CC(CO)N(C)C1 (single isomer, unassigned) [15a] and write its reported Percentage inhibition of ligand binding, Adrenergic α2A (0.3 μM).
Output: 14

Input: In one line, give reported Percentage inhibition of ligand binding, Adrenergic α2A (0.3 μM) of the entry CC(O)(Cn1c2c(c3cc(Cl)cc(F)c31)CN1CCCC1C2)c1cccnc1 (single isomer, unassigned) [63a] .
Output: 32

Input: Provide one value: measured Percentage inhibition of ligand binding, Adrenergic α2A (0.3 μM) of Cc1ccc2c(c1)c1c(n2CC(O)c2ccncc2)CNC2CCCC12 (single isomer, unassigned) [34d]
Output: −1

Input: Please look at this molecule and report its Percentage inhibition of ligand binding, Adrenergic α2A (0.3 μM): CC(O)(Cn1c2c(c3cc(Cl)cc(F)c31)C1CCCN1CC2)c1cccnc1 (single isomer, unassigned) [53c]
Output: −15

Input: Let me know recorded Percentage inhibition of ligand binding, Adrenergic α2A (0.3 μM) for Cc1cc(F)c2c(c1)c1c(n2CC(C)(O)c2cccnc2)CC2CCCN2C1 (single isomer, unassigned) [61d] , thanks.
Output: −4

Input: Please give the documented Percentage inhibition of ligand binding, Adrenergic α2A (0.3 μM) of Cc1ccc2c(c1)c1c(n2CC(C)(O)c2ccc(N(C)C)nc2)CCN(C)C1 (single isomer, unassigned) [39b]
Output: 5

Input: Read off the recorded Percentage inhibition of ligand binding, Adrenergic α2A (0.3 μM) for Cc1ccc2c(c1F)c1c(n2CC(C)(O)c2cccnc2)CCN2CCCC12 (single isomer, unassigned) [87c]
Output: 94

Input: Give the reported value of Percentage inhibition of ligand binding, Adrenergic α2A (0.3 μM) for this record: CCOC(Cn1c2c(c3cc(C)ccc31)CN(C)CC2)c1ccncc1 (single isomer, unassigned) [43a]
Output: 63

Input: Give reported Percentage inhibition of ligand binding, Adrenergic α2A (0.3 μM) value for CC(O)(Cn1c2c(c3cc(Cl)cc(F)c31)C1CCCN1CC2)c1ccncc1 (single isomer, unassigned) [52b]
Output: 78

Input: For the molecule CC(O)(Cn1c2c(c3cc(Cl)cc(F)c31)C1CCCN1CC2)c1ccncc1 (single isomer, unassigned) [52c] , give its reported Percentage inhibition of ligand binding, Adrenergic α2A (0.3 μM).
Output: 12

Input: Name the recorded Percentage inhibition of ligand binding, Adrenergic α2A (0.3 μM) of the item Cc1ccc2c(c1)c1c(n2CC(C)(O)c2ccnc(F)c2)CCN2CCCC12 (single isomer, unassigned) [48b] in your answer.
Output: 87

The values you see were collected from patent US20150315188A1.
